Entries and their measured GI50 follow.
- Test system: HT-29
- assayExplanation: NCI tumour cell line growth inhibition, 48 h
Activity calls are given as the source filed them. No stated cut-off is given here; in the data, active = GI50 up to about 1.1 µM and inactive = higher.
readoutName: GI50

compound="CC(=O)OCC(C)C1=C(O)C(=O)C2(C)C/C=C(/C)CC/C=C(\\C)CCC(O)C(C)CCC12 (stereo not drawn)" readoutname=GI50 measvalue="17.3 µM (inactive)"
compound="O=C1CC23CC(=O)CC2(C1)c1ccccc1C3=O (stereo not drawn)" readoutname=GI50 measvalue="> 100 µM (inactive)"
compound=O=C1c2ccc(O)cc2C(=O)c2ccc(O)cc21 readoutname=GI50 measvalue="> 100 µM (inactive)"
compound=CC(C)c1ccc(/C=C(\NC(=O)c2ccccc2)c2nc3ccccc3[nH]2)cc1 readoutname=GI50 measvalue="33.6 µM (inactive)"
compound=OC1CSCCSCCCSCCSC1 readoutname=GI50 measvalue="> 100 µM (inactive)"
compound="NNC(=S)N/N=C(/C(=O)Nc1cc(Cl)ccc1Cl)C1C(=O)Nc2ccccc2[S+]1[O-] (stereo not drawn)" readoutname=GI50 measvalue="> 100 µM (inactive)"
compound="Cc1cc(=O)oc2c(CNC(CC(C)C)C(=O)O)c(O)ccc12 (stereo not drawn)" readoutname=GI50 measvalue="> 100 µM (inactive)"
compound=Ic1cccc(/C=C/CN2CCN(CCOC(c3ccccc3)c3ccccc3)CC2)c1 readoutname=GI50 measvalue="6.47 µM (inactive)"
compound=CC(=O)Oc1c(Br)ccc2cc(C(Br)Br)c(C(=O)c3ccccc3)nc12 readoutname=GI50 measvalue="19.2 µM (inactive)"
compound=O=c1cc(N2CCOCC2)n2c(ccc3ccccc32)n1 readoutname=GI50 measvalue="> 100 µM (inactive)"
compound="Cc1cccc(C)c1NC(=O)CCCC(=O)C1/C(=N/NC(=O)CC#N)CCC/C1=N\\NC(=O)CC#N (stereo not drawn)" readoutname=GI50 measvalue="> 100 µM (inactive)"
compound="CC(NNC(=O)c1cc[n+]([BH2-]C#N)cc1)c1ccccc1 (stereo not drawn)" readoutname=GI50 measvalue="> 100 µM (inactive)"
compound="COC1CC(OS(=O)(=O)c2ccc(C)cc2)C(OC(=O)c2ccccc2)C(C)O1 (stereo not drawn)" readoutname=GI50 measvalue="> 10 µM (inactive)"
compound="C=C(CN(C)C)C1(c2ccccc2)CC2(CCCC2)C(=O)O1 (stereo not drawn)" readoutname=GI50 measvalue="24.2 µM (inactive)"
compound="COc1cc(C2NCCC(c3ccccc3)(c3ccccc3)N2)cc(OC)c1OC (stereo not drawn)" readoutname=GI50 measvalue="4.66 µM (inactive)"
compound="CCC(C)C(NC(=O)C(CCCCN)NC(=O)C(NC(=O)C(CCC(N)=O)NC(=O)C(CCCNC(=N)N)NC(C)=O)C(C)CC)C(=O)NC(Cc1c[nH]c2ccccc12)C(=O)NC(Cc1ccccc1)C(=O)NC(CCC(N)=O)C(=O)NC(CC(N)=O)C(=O)NC(CCCNC(=N)N)C(=O)NC(CCCNC(=N)N)C(=O)NC(CCSC)C(=O)NC(CCCCN)C(=O)NC(Cc1c[nH]c2ccccc12)C(=O)NC(CCCCN)C(=O)NC(CCCCN)C(N)=O (stereo not drawn)" readoutname=GI50 measvalue="> 50 µM (inactive)"
compound="COP(=O)(OC)C(Nc1ccc(Cc2ccc(NC(c3ccco3)P(=O)(OC)OC)cc2)cc1)c1ccco1 (stereo not drawn)" readoutname=GI50 measvalue="> 100 µM (inactive)"
compound=CC(C)(C)c1cc(C(C)(C)C)c(SS(=O)(=O)O)c(O)c1O readoutname=GI50 measvalue="41.1 µM (inactive)"
